Listing of recorded protein stability index by entry.
measurement_description: protein stability index of a GFP-peptide fusion (GPS, HEK-293T) (PSI 1-6); higher = more stable;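 note: 24-mer peptide tiles fused after GFP, lentivirally expressed, FACS-sorted into six equal bins by GFP/DsRed ratio, decoded by Illumina sequencing, PSI is the read-weighted mean bin number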
experimental_setup: treatment: DMSO; c terminus: a fixed tail appended
Could you keep your reply to the number by itself?

A selection of reference data follows.
According to the records, this sequence VYASDKEWIRFDQSNVLCSIFGIC [PTGFR] displays protein stability index of 2.56

According to the records, this sequence WLPYLYTLQGLYLVYHPVQLSTPH [DHCR7] displays protein stability index of 3

According to the records, this sequence FFPQHPNFCEPQDYRPMNHEAFKD [CDC25B] displays protein stability index of 3.81

According to the records, this sequence DKPLPPPPPGSLSRTQEPSLGKQK [SOAT2] displays protein stability index of 5.27

New cases:
According to the records, this sequence PPQPCATACKPVIRVPSVPPVPCV [KRT36] displays protein stability index of 2.9

According to the records, this sequence QWNAGEKKLTGGANWQPKVAPATW [SNAP91] displays protein stability index of 2.98

According to the records, this sequence TSLLDLISIPITGDTLRTFSLVLV [DYNC2LI1] displays protein stability index of 2.76

* * *

measurement_description: protein stability index of a GFP-peptide fusion (GPS, HEK-293T) (PSI 1-6); higher = more stable
experimental_setup: treatment: DMSO; c terminus: a fixed tail appended
value_type: protein stability index

A selection of reference data follows.
According to the records, this sequence MQCPVIAVNSGGPLESIDHSVTGF [ALG2] displays protein stability index of 2.83

According to the records, this sequence FLDLFRYRVLLGHTLILMFIWFVC [SLC22A15] displays protein stability index of 2.73

According to the records, this sequence GAPEDDEEDDGRGRGLLRWDSFSA [DENND6A] displays protein stability index of 4.92

New cases:
According to the records, this sequence QSFISWTGDGWEFKLADPDEVARR [ETS2] displays protein stability index of 3.58

According to the records, this sequence RSVQNFRFFASSSLHHTSECTQMD [ALDH8A1] displays protein stability index of 3.14

* * *

measurement_description: protein stability index of a GFP-peptide fusion (GPS, HEK-293T) (PSI 1-6); higher = more stable
experimental_setup: treatment: MLN4924 1 uM, 8 h; c terminus: a fixed tail appended
Everything with protein stability index lower than 3 is criterion not met; everything else, including exactly 3, is criterion met.

The following sequences have reported results that may help.
QUERY: Is the recorded value of protein stability index equal to or greater than 3 for this sequence? NLVLSEDRKSVKFVETRLRDLPDT [TRIM39]
RESULT: criterion met

QUERY: Is the recorded value of protein stability index equal to or greater than 3 for this sequence? SLGLSHSTDIGALMYPSYTFSGDV [MMP1]
RESULT: criterion met

QUERY: Is the recorded value of protein stability index equal to or greater than 3 for this sequence? FGDVSERLALRQRLKCRSFKWYLE [GALNT9]
RESULT: criterion not met

QUERY: Is the recorded value of protein stability index equal to or greater than 3 for this sequence? ERALDATEVPFSITTDNLQCRERR [TEKT4]
RESULT: criterion met

QUERY: Is the recorded value of protein stability index equal to or greater than 3 for this sequence? ALEFWRQEELTRINQSFTGAERKA [IQUB]
RESULT: criterion met

New cases:
QUERY: Is the recorded value of protein stability index equal to or greater than 3 for this sequence? SSPKFREEAAFPGRRVNAKMPVYS [ELOA2]
RESULT: criterion met

QUERY: Is the recorded value of protein stability index equal to or greater than 3 for this sequence? RADAHLGSSSVALPKEASDGTGAS [TOR1AIP2]
RESULT: criterion met

QUERY: Is the recorded value of protein stability index equal to or greater than 3 for this sequence? MMPLAEAGALAQGGGPSATEWACI [C6orf223]
RESULT: criterion met
